system: Plasmodium falciparum; test: Antimalarial activity against chloroquine/ pyrimethamine-resitant Plasmodium falciparum W2 assessed as reduction in parasite growth preincubated for 48 hrs followed by addition of [3H]Hypoxanthine and measured after 48 hrs by [3H]Hypoxanthine incorporation assay; type: functional, organism-based
Reported IC50 values for the following compounds.

{"columns": ["compound", "test-result"],
 "data": [
  ["CCOC(=O)[C@H](Cc1ccccc1)NP(=O)(CCO[C@H](CO)Cn1cnc2c(=O)[nH]c(N)nc21)N[C@@H](Cc1ccccc1)C(=O)OCC", "22 to 70 µM"],
  ["CCOC(=O)[C@H](Cc1ccccc1)NP(N)(=O)CCO[C@H](CO)Cn1cnc2c(=O)[nH]c(N)nc21 (stereo partly drawn)", "> 250 µM"]
]}

Please look at the following compound next.
Look up IC50 with Plasmodium falciparum for this compound: CCOC(=O)[C@H](Cc1ccccc1)NP(N)(=O)CCO[C@H](CO)Cn1cnc2c(=O)[nH]cnc21 (stereo partly drawn)
> 250 µM
